Tested on: OVSAHO
Assay: OVSAHO Cell Viability
Format: cell-based
Conditions: 30 μM, CD133+ cells
Exercise: state measured OVSAHO Cell Viability (30 μM) % CD133 + % ctrl for each of the molecules provided.
Express the result in % ctrl but write the number alone.

Incoming: Value wanted: OVSAHO Cell Viability (30 μM) % CD133 + % ctrl (OVSAHO) of entry `C[C@@H](Sc1nc2c(cnn2C)c(=O)n1-c1ccccc1)c1ccccc1`
Outgoing: 117

Incoming: Value wanted: OVSAHO Cell Viability (30 μM) % CD133 + % ctrl (OVSAHO) of entry CC(Sc1nc2c(cnn2C)c(=O)n1-c1ccccc1)c1ccccc1 (racemic)
Outgoing: 88

Incoming: Value wanted: OVSAHO Cell Viability (30 μM) % CD133 + % ctrl (OVSAHO) of entry `Cn1ncc2c(=O)n(-c3ccccc3)c(SCc3cccc(C(=O)C(F)(F)F)c3)nc21`
Outgoing: 84

Incoming: Value wanted: OVSAHO Cell Viability (30 μM) % CD133 + % ctrl (OVSAHO) of entry `Cn1ncc2c(=O)n(-c3ccccc3)c(OCc3cccc(F)c3)nc21`
Outgoing: 76

Incoming: Value wanted: OVSAHO Cell Viability (30 μM) % CD133 + % ctrl (OVSAHO) of entry `CN(Cc1nc2c(cnn2C)c(=O)n1-c1ccccc1)c1cccc(F)c1`
Outgoing: 96

Incoming: Value wanted: OVSAHO Cell Viability (30 μM) % CD133 + % ctrl (OVSAHO) of entry `O=c1c2cn(CC3COC3)nc2nc(OCc2cccc(F)c2)n1-c1ccccc1`
Outgoing: 81

Incoming: Value wanted: OVSAHO Cell Viability (30 μM) % CD133 + % ctrl (OVSAHO) of entry `CC1(Cn2cc3c(=O)n(-c4ccccc4)c(SCc4cccc(F)c4)nc3n2)COC1`
Outgoing: 100

Incoming: Value wanted: OVSAHO Cell Viability (30 μM) % CD133 + % ctrl (OVSAHO) of entry CCC(Sc1nc2c(cnn2C)c(=O)n1-c1ccccc1)c1ccccc1 (stereo not drawn)
Outgoing: 56

Incoming: Value wanted: OVSAHO Cell Viability (30 μM) % CD133 + % ctrl (OVSAHO) of entry `C[C@H](Sc1nc2c(cnn2C)c(=O)n1-c1ccccc1)c1ccccc1`
Outgoing: 80

###

Exercise: state measured remaining activity at 20 µM for each of the molecules provided.
Biological target: ALDH1A3 (Homo sapiens, UniProt P47895)
Sequence (P47895 whole entry): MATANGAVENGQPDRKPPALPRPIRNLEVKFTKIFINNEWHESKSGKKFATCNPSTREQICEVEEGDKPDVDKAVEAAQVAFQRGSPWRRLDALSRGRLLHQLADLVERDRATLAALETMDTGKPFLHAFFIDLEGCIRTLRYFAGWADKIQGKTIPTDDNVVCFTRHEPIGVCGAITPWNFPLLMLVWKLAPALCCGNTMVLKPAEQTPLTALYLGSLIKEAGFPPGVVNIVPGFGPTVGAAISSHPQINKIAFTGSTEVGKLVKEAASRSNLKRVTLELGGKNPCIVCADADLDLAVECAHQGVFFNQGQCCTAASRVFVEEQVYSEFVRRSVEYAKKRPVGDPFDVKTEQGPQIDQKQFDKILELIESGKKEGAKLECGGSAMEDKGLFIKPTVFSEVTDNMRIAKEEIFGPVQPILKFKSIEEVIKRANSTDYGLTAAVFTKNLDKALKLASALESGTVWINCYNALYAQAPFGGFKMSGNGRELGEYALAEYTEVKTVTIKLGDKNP
Experiment: Inhibition of ALDH isoenzymes (NAD(P)H formation at 340 nm, purified recombinant enzyme)
Type: biochemical
Conditions: compound at 20 μM; read-out: ALDH1A3 % Control at 20 μM

Incoming: Which remaining activity at 20 µM is listed for `C[C@H](Sc1nc2c(cnn2C)c(=O)n1-c1ccccc1)c1ccccc1` ?
Outgoing: 9%

Incoming: Which remaining activity at 20 µM is listed for `O=c1c2cnn(C3COC3)c2nc(SCc2cccc(F)c2)n1-c1ccccc1` ?
Outgoing: 9%

Incoming: Which remaining activity at 20 µM is listed for `Cc1ccccc1-n1c(NCc2cccc(F)c2)nc2[nH]ncc2c1=O` ?
Outgoing: 90%

Incoming: Which remaining activity at 20 µM is listed for Cn1ncc2c(=O)n(-c3ccccc3)c(SC3CCCC3=O)nc21 (centres unmarked) ?
Outgoing: 64%

Incoming: Which remaining activity at 20 µM is listed for `Cn1ncc2c(=O)n(-c3ccccc3)c(SCc3cccc(C#N)c3)nc21` ?
Outgoing: 32%

Incoming: Which remaining activity at 20 µM is listed for `Cc1ccccc1-n1c(SCc2cccc(F)c2)nc2n[nH]c(C)c2c1=O` ?
Outgoing: 79%

Incoming: Which remaining activity at 20 µM is listed for Cn1ncc2c(=O)n(-c3ccccc3)c(SC3CCCCC3=O)nc21 (centres unmarked) ?
Outgoing: 14%

Incoming: Which remaining activity at 20 µM is listed for `Cn1ncc2c(=O)n(C3CCCC3)c(SCc3cccc(F)c3)nc21` ?
Outgoing: 95%

Incoming: Which remaining activity at 20 µM is listed for `Cc1ccccc1-n1c(OCc2cccc(F)c2)nc2c(cnn2C)c1=O` ?
Outgoing: 66%

Incoming: Which remaining activity at 20 µM is listed for CC(Sc1nc2c(cnn2C)c(=O)n1-c1ccccc1)c1cccc(F)c1 (centres unmarked) ?
Outgoing: -10%

Incoming: Which remaining activity at 20 µM is listed for `Cc1ccccc1-n1c(NCCc2cccc(F)c2)nc2c(cnn2C)c1=O` ?
Outgoing: 100%

Incoming: Which remaining activity at 20 µM is listed for CCC(Sc1nc2c(cnn2C)c(=O)n1-c1ccccc1)c1ccccc1 (centres unmarked) ?
Outgoing: -10%

Incoming: Which remaining activity at 20 µM is listed for `Cn1ncc2c(=O)n(-c3ccccc3)c(SC3CCCCC3)nc21` ?
Outgoing: 24%

Incoming: Which remaining activity at 20 µM is listed for `Cn1ncc2c(=O)n(-c3ccccc3O)c(SCc3cccc(F)c3)nc21` ?
Outgoing: 100%

Incoming: Which remaining activity at 20 µM is listed for `Cn1ncc2c(=O)n(-c3ccccc3)c(COCc3cccc(F)c3)nc21` ?
Outgoing: 37%

Incoming: Which remaining activity at 20 µM is listed for `CC1(Cn2cc3c(=O)n(-c4ccccc4)c(SCc4cccc(F)c4)nc3n2)COC1` ?
Outgoing: 4%

Incoming: Which remaining activity at 20 µM is listed for `Cn1ncc2c(=O)n(-c3ccccc3)c(SC(C)(C)c3ccccc3)nc21` ?
Outgoing: 17%

Incoming: Which remaining activity at 20 µM is listed for `Cn1ncc2c(=O)n(-c3ccccc3F)c(SCc3cccc(F)c3)nc21` ?
Outgoing: 9%

Incoming: Which remaining activity at 20 µM is listed for `Cn1ncc2c(=O)n(C3CCC3)c(SCc3cccc(F)c3)nc21` ?
Outgoing: 73%

Incoming: Which remaining activity at 20 µM is listed for CC(Sc1nc2c(cnn2C2COC2)c(=O)n1-c1ccccc1)c1ccccc1 (centres unmarked) ?
Outgoing: 1%

Incoming: Which remaining activity at 20 µM is listed for `O=c1c2cn(CC3CNC3)nc2nc(SCc2cccc(F)c2)n1-c1ccccc1` ?
Outgoing: 10%

Incoming: Which remaining activity at 20 µM is listed for `Cn1ncc2c(=O)n(C3CCCCC3)c(SCc3cccc(F)c3)nc21` ?
Outgoing: 43%

Incoming: Which remaining activity at 20 µM is listed for `Cn1ncc2c(=O)n(-c3ccccc3)c(COc3cccc(F)c3)nc21` ?
Outgoing: 83%

Incoming: Which remaining activity at 20 µM is listed for `Cn1ncc2c(=O)n(-c3ccccc3)c(CNCc3cccc(F)c3)nc21` ?
Outgoing: 74%

Incoming: Which remaining activity at 20 µM is listed for `Cn1ncc2c(=O)n(-c3ccccc3)c(CCc3cccc(F)c3)nc21` ?
Outgoing: 26%

Incoming: Which remaining activity at 20 µM is listed for CC(Sc1nc2nn(C3COC3)cc2c(=O)n1-c1ccccc1)c1ccccc1 (centres unmarked) ?
Outgoing: 0%

###

Test system: OVSAHO
Test: OVSAHO Cell Viability
Type: cell-based
Conditions: 50 μM, total cells
Quick rule: OVSAHO Cell Viability (50 μM) Total Cell % ctrl of at least 40 % ctrl means Met, below that means Not met.

Incoming: For this compound, is measured OVSAHO Cell Viability (50 μM) Total Cell % ctrl 40 % ctrl or higher? `CCn1ncc2c(=O)n(-c3ccccc3)c(SCc3cccc(F)c3)nc21`
Outgoing: Not met

Incoming: For this compound, is measured OVSAHO Cell Viability (50 μM) Total Cell % ctrl 40 % ctrl or higher? `Cc1ccccc1-n1c(SCc2cccc(F)c2)nc2c(cnn2C2COC2)c1=O`
Outgoing: Not met

Incoming: For this compound, is measured OVSAHO Cell Viability (50 μM) Total Cell % ctrl 40 % ctrl or higher? `Cn1ncc2c(=O)n(-c3ccccn3)c(SCc3cccc(F)c3)nc21`
Outgoing: Met

Incoming: For this compound, is measured OVSAHO Cell Viability (50 μM) Total Cell % ctrl 40 % ctrl or higher? `Cn1ncc2c(=O)n(-c3ccccc3O)c(SCc3cccc(F)c3)nc21`
Outgoing: Not met

Incoming: For this compound, is measured OVSAHO Cell Viability (50 μM) Total Cell % ctrl 40 % ctrl or higher? `Cn1ncc2c(=O)n(Cc3ccccc3)c(SCc3cccc(F)c3)nc21`
Outgoing: Not met

Incoming: For this compound, is measured OVSAHO Cell Viability (50 μM) Total Cell % ctrl 40 % ctrl or higher? `Cn1ncc2c(=O)n(-c3ccncc3)c(SCc3cccc(F)c3)nc21`
Outgoing: Met

Incoming: For this compound, is measured OVSAHO Cell Viability (50 μM) Total Cell % ctrl 40 % ctrl or higher? `Cc1ccccc1-n1c(SCc2cccc(F)c2)nc2c(cnn2CC2COC2)c1=O`
Outgoing: Not met

Incoming: For this compound, is measured OVSAHO Cell Viability (50 μM) Total Cell % ctrl 40 % ctrl or higher? `Cn1ncc2c(=O)n(-c3cccnc3)c(SCc3cccc(F)c3)nc21`
Outgoing: Met

Incoming: For this compound, is measured OVSAHO Cell Viability (50 μM) Total Cell % ctrl 40 % ctrl or higher? `CCn1cc2c(=O)n(-c3ccccc3)c(SCc3cccc(F)c3)nc2n1`
Outgoing: Met

Incoming: For this compound, is measured OVSAHO Cell Viability (50 μM) Total Cell % ctrl 40 % ctrl or higher? `Cn1c(SCc2cccc(F)c2)nc2c(cnn2C)c1=O`
Outgoing: Not met

Incoming: For this compound, is measured OVSAHO Cell Viability (50 μM) Total Cell % ctrl 40 % ctrl or higher? `Cn1cc2c(=O)n(-c3ccccc3)c(SCc3cccc(F)c3)nc2n1`
Outgoing: Met

Incoming: For this compound, is measured OVSAHO Cell Viability (50 μM) Total Cell % ctrl 40 % ctrl or higher? `Cc1ccccc1-n1c(OCc2cc3ccccc3s2)nc2c(cnn2C)c1=O`
Outgoing: Not met
